Attribution: patent US8017792B2

target: Human SGLT1 (Homo sapiens, UniProt P13866); test: Sodium-dependent sugar uptake inhibition test in CHO-K1 cells stably expressing human SGLT1 (Test Example 2); settings: [14C]methyl-α-D-glucopyranoside 0.1 mM, 37° C., 30 minutes
Sequence (P13866 whole entry): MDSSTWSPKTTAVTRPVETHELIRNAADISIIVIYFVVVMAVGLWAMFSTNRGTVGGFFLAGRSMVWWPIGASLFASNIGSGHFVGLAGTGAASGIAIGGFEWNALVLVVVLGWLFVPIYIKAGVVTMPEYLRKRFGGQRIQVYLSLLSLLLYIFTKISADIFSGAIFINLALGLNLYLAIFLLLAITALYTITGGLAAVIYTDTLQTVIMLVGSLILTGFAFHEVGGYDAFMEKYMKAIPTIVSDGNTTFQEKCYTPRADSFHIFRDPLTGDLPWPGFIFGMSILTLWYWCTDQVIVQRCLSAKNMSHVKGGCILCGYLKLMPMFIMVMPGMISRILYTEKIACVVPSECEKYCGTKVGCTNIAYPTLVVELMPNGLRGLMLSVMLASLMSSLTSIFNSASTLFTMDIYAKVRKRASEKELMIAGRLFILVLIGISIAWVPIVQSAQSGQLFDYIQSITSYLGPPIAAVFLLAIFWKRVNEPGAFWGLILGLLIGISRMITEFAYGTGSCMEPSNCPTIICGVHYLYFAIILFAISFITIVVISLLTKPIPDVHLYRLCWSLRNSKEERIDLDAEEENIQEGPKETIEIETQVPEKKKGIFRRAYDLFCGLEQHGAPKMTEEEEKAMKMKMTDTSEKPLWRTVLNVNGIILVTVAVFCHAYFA
Lab note: anything with IC50 below 4000 nM is marked rule met; values at 4000 nM or higher are marked rule not met.

Examples from the recorded data:
CCOc1ccc(Cc2ccc(O)c([C@@H]3S[C@H](CO)[C@@H](O)[C@H](O)[C@H]3O)c2)cc1 rule met
CCOc1ccc(Cc2cccc([C@@H]3S[C@H](CO)[C@@H](O)[C@H](O)[C@H]3O)c2)cc1 rule not met
CCOc1ccc(Cc2cc([C@@H]3S[C@H](CO)[C@@H](O)[C@H](O)[C@H]3O)ccc2Cl)cc1F rule met

Query molecule follows.
Quick check: does CCOc1ccc(Cc2cc([C@@H]3S[C@H](CO)[C@@H](O)[C@H](O)[C@H]3O)ccc2O)cc1 have IC50 under 4000 nM?
rule not met
